assayed system: Cytochrome P450 2C9 (Homo sapiens)
Sequence (P11712 whole entry): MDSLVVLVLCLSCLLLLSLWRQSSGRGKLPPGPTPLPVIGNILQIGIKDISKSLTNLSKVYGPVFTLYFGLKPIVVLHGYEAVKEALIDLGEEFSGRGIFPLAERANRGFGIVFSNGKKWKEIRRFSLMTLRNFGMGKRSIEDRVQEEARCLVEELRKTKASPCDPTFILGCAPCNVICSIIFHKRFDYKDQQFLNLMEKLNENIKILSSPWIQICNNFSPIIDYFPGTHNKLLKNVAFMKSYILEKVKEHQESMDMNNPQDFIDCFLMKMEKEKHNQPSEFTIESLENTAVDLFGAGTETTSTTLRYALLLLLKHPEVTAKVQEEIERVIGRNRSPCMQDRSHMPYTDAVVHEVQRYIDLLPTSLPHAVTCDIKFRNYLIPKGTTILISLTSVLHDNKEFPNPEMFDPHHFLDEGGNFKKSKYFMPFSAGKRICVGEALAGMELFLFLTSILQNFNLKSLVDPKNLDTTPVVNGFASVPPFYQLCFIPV
endpoint name: IC50

Consider the compound CCO[C@@H]1Cc2cc(C(F)(F)F)ccc2[C@H]1N1CCN(C2(C)CCN(C(=O)c3c(C)ncnc3C)CC2)C[C@@H]1C tested on Cytochrome P450 2C9 (Homo sapiens); state its IC50. > 25 µM

* * *

protocol notes: Half life in dog at 1 mg/kg, iv
Format: ADME, organism-based, Canis lupus familiaris
Design: dose 1 mg/kg, route intravenous
cond: in vivo
endpoint name: half-life (h)
Give your result in h as a bare value.

For the compound CCO[C@@H]1Cc2cc(C(F)(F)F)ccc2[C@H]1N1CCN(C2(C)CCN(C(=O)c3c(C)ncnc3C)CC2)C[C@@H]1C , give its measured half-life value. 11

* * *

protocol notes: Systemic clearance in dog at 1 mg/kg, iv
Type: ADME, organism-based, Canis lupus familiaris
Design: dose 1 mg/kg, route intravenous
cond: in vivo
endpoint name: clearance (mL/min/kg)
Give your result in mL/min/kg as a bare value.

For the molecule CCO[C@@H]1Cc2cc(C(F)(F)F)ccc2[C@H]1N1CCN(C2(C)CCN(C(=O)c3c(C)ncnc3C)CC2)C[C@@H]1C [INCB-9471] , give its measured clearance value. 3.33

* * *

protocol notes: AUC in dog at 1 mg/kg, iv
Assay type: ADME, organism-based, Canis lupus familiaris
Set-up: dose 1 mg/kg, route intravenous
cond: plasma
endpoint name: AUC (µM·h)
Give your result in µM·h as a bare value.

For the molecule CCO[C@@H]1Cc2cc(C(F)(F)F)ccc2[C@H]1N1CCN(C2(C)CCN(C(=O)c3c(C)ncnc3C)CC2)C[C@@H]1C , give its measured AUC value. 7.85

* * *

protocol notes: Tmax in dog at 20 mg/kg, po
Format: ADME, organism-based, Canis lupus familiaris
Design: dose 20 mg/kg, route oral
cond: in vivo
endpoint name: Tmax (min)
Give your result in min as a bare value.

For the compound CCO[C@@H]1Cc2cc(C(F)(F)F)ccc2[C@H]1N1CCN(C2(C)CCN(C(=O)c3c(C)ncnc3C)CC2)C[C@@H]1C [INCB-9471] , give its measured Tmax value. 30

* * *

protocol notes: Half life in human in repeated dosing regimen
Assay type: ADME, organism-based
cond: in vivo
Quick reference: half-life of the listed items.
Give your result in h as a bare value.

COC[C@@H](c1ccc(C(F)(F)F)cc1)N1CCN(C2(C)CCN(C(=O)c3c(C)ncnc3C)CC2)C[C@@H]1C [VICRIVIROC]
28

Let us move to another entry and its half-life.
For the compound CCO[C@@H]1Cc2cc(C(F)(F)F)ccc2[C@H]1N1CCN(C2(C)CCN(C(=O)c3c(C)ncnc3C)CC2)C[C@@H]1C [INCB-9471] , give its measured half-life value. 58

* * *

protocol notes: Half life in dog at 20 mg/kg, po
Format: ADME, organism-based, Canis lupus familiaris
Parameters: dose 20 mg/kg, route oral
cond: in vivo
endpoint name: half-life
The reply should read as a number followed by its unit.

For the compound CCO[C@@H]1Cc2cc(C(F)(F)F)ccc2[C@H]1N1CCN(C2(C)CCN(C(=O)c3c(C)ncnc3C)CC2)C[C@@H]1C , give its measured half-life value. 17 h

* * *

assayed system: Voltage-gated inwardly rectifying potassium channel KCNH2 (Homo sapiens)
Sequence (Q12809 whole entry): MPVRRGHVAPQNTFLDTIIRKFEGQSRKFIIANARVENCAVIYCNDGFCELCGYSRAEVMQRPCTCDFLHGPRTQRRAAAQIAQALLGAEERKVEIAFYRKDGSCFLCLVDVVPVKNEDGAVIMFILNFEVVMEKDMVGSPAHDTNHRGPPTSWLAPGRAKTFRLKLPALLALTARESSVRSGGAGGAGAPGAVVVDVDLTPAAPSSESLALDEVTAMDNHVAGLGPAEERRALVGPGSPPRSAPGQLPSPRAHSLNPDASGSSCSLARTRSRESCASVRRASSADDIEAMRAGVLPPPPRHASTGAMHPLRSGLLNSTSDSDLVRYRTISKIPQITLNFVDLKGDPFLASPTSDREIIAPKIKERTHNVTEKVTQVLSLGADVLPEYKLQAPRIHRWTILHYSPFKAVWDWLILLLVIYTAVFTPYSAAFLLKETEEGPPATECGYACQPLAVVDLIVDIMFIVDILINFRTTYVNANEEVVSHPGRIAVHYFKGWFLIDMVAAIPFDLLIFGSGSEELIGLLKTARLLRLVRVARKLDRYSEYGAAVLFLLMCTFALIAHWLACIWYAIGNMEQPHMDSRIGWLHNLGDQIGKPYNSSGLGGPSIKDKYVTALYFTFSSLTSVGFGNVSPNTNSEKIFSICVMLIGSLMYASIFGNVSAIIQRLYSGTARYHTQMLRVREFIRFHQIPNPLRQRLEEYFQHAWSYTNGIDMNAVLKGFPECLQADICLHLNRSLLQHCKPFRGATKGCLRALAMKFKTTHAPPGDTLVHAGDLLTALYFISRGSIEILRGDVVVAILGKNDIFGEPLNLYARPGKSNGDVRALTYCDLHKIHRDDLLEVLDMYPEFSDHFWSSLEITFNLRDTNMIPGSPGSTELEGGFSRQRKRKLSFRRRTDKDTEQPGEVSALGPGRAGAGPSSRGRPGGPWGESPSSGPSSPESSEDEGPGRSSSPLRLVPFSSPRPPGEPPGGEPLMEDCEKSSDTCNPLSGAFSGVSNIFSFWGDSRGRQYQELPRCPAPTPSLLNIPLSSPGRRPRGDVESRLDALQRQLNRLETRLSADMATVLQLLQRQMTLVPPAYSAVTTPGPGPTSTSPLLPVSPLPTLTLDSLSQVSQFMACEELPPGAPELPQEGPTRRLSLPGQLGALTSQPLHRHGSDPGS
endpoint name: pIC50
Keep in mind that pIC50 stands for -log10 of concentration in molar terms.

Consider the molecule CCO[C@@H]1Cc2cc(C(F)(F)F)ccc2[C@H]1N1CCN(C2(C)CCN(C(=O)c3c(C)ncnc3C)CC2)C[C@@H]1C tested on Voltage-gated inwardly rectifying potassium channel KCNH2 (Homo sapiens); state its pIC50. 5.35

* * *

protocol notes: Cmax in dog at 20 mg/kg, po
Assay type: ADME, organism-based, Canis lupus familiaris
Set-up: dose 20 mg/kg, route oral
cond: in vivo
endpoint name: Cmax (µM)
Give your result in µM as a bare value.

For the molecule CCO[C@@H]1Cc2cc(C(F)(F)F)ccc2[C@H]1N1CCN(C2(C)CCN(C(=O)c3c(C)ncnc3C)CC2)C[C@@H]1C , give its measured Cmax value. 14

* * *

assayed system: C-C chemokine receptor type 5 (Homo sapiens)
Sequence (P51681 whole entry): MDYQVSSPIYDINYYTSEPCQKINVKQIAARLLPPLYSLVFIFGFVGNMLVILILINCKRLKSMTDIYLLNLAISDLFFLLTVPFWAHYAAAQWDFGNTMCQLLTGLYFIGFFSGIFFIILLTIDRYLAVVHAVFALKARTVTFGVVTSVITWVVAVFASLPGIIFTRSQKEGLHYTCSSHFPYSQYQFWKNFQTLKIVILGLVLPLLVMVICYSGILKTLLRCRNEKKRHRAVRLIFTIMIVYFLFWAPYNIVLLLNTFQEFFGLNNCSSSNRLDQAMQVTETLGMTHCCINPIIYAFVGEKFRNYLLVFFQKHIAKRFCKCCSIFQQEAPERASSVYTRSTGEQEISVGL
protocol notes: Activation of CCR5 in human PBMC cells
endpoint name: pKd
Keep in mind that pKd stands for -log10 of concentration in molar terms.

For the compound CCO[C@@H]1Cc2cc(C(F)(F)F)ccc2[C@H]1N1CCN(C2(C)CCN(C(=O)c3c(C)ncnc3C)CC2)C[C@@H]1C [INCB-9471] , give its measured pKd value. 8.51

* * *

protocol notes: AUC in rat at 20 mg/kg, po
Type: ADME, organism-based
Set-up: dose 20 mg/kg, route oral
cond: plasma
endpoint name: AUC (µM·h)
Give your result in µM·h as a bare value.

For the molecule CCO[C@@H]1Cc2cc(C(F)(F)F)ccc2[C@H]1N1CCN(C2(C)CCN(C(=O)c3c(C)ncnc3C)CC2)C[C@@H]1C , give its measured AUC value. 55.2

* * *

Quick reference: pIC50 of the listed items.
System: Human immunodeficiency virus 1
protocol notes: Antiviral activity against HIV-1 BaL infected in PHA-stimulated human PBMC cells assessed as viral p24 core protein level after 7 days by ELISA
Type: functional, organism-based
cond: Human immunodeficiency virus 1, BaL, 168 h
Keep in mind that pIC50 stands for -log10 of concentration in molar terms.

Some molecules with recorded pIC50:
CCO[C@@H]1Cc2cc(C(F)(F)F)ccc2[C@H]1N1CCN(C2(C)CCN(C(=O)c3c(C)ncnc3C)CC2)C[C@@H]1C
9.80
Cc1ncnc(C)c1C(=O)N1CCC(C)(N2CCN(C3CCc4cc(C(F)(F)F)ccc43)[C@@H](C)C2)CC1 (single isomer, unassigned)
7.72
CO[C@@H]1Cc2cc(C(F)(F)F)ccc2[C@H]1N1CCN(C2(C)CCN(C(=O)c3c(C)ncnc3C)CC2)C[C@@H]1C
7.96
Cc1ncnc(C)c1C(=O)N1CCC(C)(N2CCN(C3CCc4cc(Br)ccc43)[C@@H](C)C2)CC1 (single isomer, unassigned; diastereomer 1)
6.48

Let us move to another entry and its pIC50.
For the molecule COC[C@@H](c1ccc(C(F)(F)F)cc1)N1CCN(C2(C)CCN(C(=O)c3c(C)ncnc3C)CC2)C[C@@H]1C , give its measured pIC50 value. 9.64

* * *

Test system: Rattus norvegicus
protocol notes: Volume of distribution in rat at 1 mg/kg, iv
Assay type: ADME, organism-based
Set-up: dose 1 mg/kg, route intravenous
cond: in vivo
endpoint name: Vd (L/kg)
Give your result in L/kg as a bare value.

For the compound CCO[C@@H]1Cc2cc(C(F)(F)F)ccc2[C@H]1N1CCN(C2(C)CCN(C(=O)c3c(C)ncnc3C)CC2)C[C@@H]1C , give its measured Vd value. 4.1

* * *

assayed system: C-C chemokine receptor type 5 (Homo sapiens)
protocol notes: Antagonist activity at CCR5 assessed as inhibition of ERK phosphorylation
Type: functional
endpoint name: pIC50
Keep in mind that pIC50 stands for -log10 of concentration in molar terms.

For the molecule CCO[C@@H]1Cc2cc(C(F)(F)F)ccc2[C@H]1N1CCN(C2(C)CCN(C(=O)c3c(C)ncnc3C)CC2)C[C@@H]1C , give its measured pIC50 value. 8.52

* * *

protocol notes: Cmax in rat at 20 mg/kg, po
Type: ADME, organism-based
Design: dose 20 mg/kg, route oral
cond: in vivo
endpoint name: Cmax (µM)
Give your result in µM as a bare value.

For the molecule CCO[C@@H]1Cc2cc(C(F)(F)F)ccc2[C@H]1N1CCN(C2(C)CCN(C(=O)c3c(C)ncnc3C)CC2)C[C@@H]1C , give its measured Cmax value. 4.07

* * *

Quick reference: pIC50 of the listed items.
assayed system: C-C chemokine receptor type 5 (Homo sapiens)
protocol notes: Displacement of [125I]MIP-1beta from CCR5 in IL-10-stimulated human monocytes
Type: cell-based
Keep in mind that pIC50 stands for -log10 of concentration in molar terms.

Cc1ncnc(C)c1C(=O)N1CCC(C)(N2CCN(C3CCc4cc(Br)ccc43)[C@@H](C)C2)CC1 (mixture of isomers)
6.72
Cc1ncnc(C)c1C(=O)N1CCC(C)(N2CCN(C3CCc4cc(C(F)(F)F)ccc43)[C@@H](C)C2)CC1 (single isomer, unassigned)
8.30
CO[C@@H]1Cc2cc(C(F)(F)F)ccc2[C@H]1N1CCN(C2(C)CCN(C(=O)c3c(C)ncnc3C)CC2)C[C@@H]1C
8.34

Let us move to another entry and its pIC50.
For the molecule Cc1ncnc(C)c1C(=O)N1CCC(C)(N2CCN([C@@H]3c4ccc(C(F)(F)F)cc4C[C@H]3O)[C@@H](C)C2)CC1 , give its measured pIC50 value. 6.68

* * *

protocol notes: AUC in dog at 20 mg/kg, po
Type: ADME, organism-based, Canis lupus familiaris
Design: dose 20 mg/kg, route oral
cond: plasma
endpoint name: AUC (µM·h)
Give your result in µM·h as a bare value.

For the compound CCO[C@@H]1Cc2cc(C(F)(F)F)ccc2[C@H]1N1CCN(C2(C)CCN(C(=O)c3c(C)ncnc3C)CC2)C[C@@H]1C , give its measured AUC value. 150
